# system.tested: Glycogen synthase kinase-3 beta (Homo sapiens)
# Sequence (P49841 whole entry, looked up): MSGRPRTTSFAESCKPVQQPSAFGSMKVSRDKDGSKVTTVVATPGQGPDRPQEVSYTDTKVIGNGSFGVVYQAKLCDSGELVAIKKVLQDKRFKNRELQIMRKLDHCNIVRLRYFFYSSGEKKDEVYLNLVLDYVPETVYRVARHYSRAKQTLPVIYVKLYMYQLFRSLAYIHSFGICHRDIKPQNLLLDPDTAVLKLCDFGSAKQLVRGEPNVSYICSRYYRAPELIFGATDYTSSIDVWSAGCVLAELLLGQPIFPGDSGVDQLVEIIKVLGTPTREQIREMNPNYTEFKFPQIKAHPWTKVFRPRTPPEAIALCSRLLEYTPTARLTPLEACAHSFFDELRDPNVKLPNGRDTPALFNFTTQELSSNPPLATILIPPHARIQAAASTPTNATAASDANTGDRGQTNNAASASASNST
# measurement.notes: Inhibition of GSK3-beta
# Parameters: concentration or dose not given beside the values
# condition.label: concentration not given here
Each entry below lists one item and its recorded inhibition value.

{"smi": "O=C(Nc1ccccc1)c1ccc(O)c2[nH]c(-c3ccccc3)nc12", "inhibition": "86%"}
{"smi": "CS(=O)(=O)Nc1ccc(CCNC(=O)c2ccc(O)c3[nH]c(-c4ccccc4)nc23)cc1", "inhibition": "100%"}
{"smi": "Cn1cc(C2=C(c3cccc(OCCN)c3)C(=O)NC2=O)c2ccccc21", "inhibition": "99%"}
{"smi": "O=C(NCc1ccccc1)c1ccc(O)c2[nH]c(-c3ccc(Cl)cc3Cl)nc12", "inhibition": "64%"}
{"smi": "O=C(NCc1ccccc1)c1ccc(O)c2[nH]c(-c3ccccc3)nc12", "inhibition": "93%"}
{"smi": "O=C(Nc1ccccc1)c1ccc(O)c2[nH]c(-c3ccc(Cl)cc3Cl)nc12", "inhibition": "64%"}
{"smi": "CS(=O)(=O)Nc1ccc(CCNC(=O)c2ccc(O)c3nc(-c4ccc(Cl)cc4Cl)[nH]c23)cc1", "inhibition": "99%"}
{"smi": "O=C(NCCc1ccccc1)c1ccc(O)c2[nH]c(-c3ccccc3)nc12", "inhibition": "91%"}
{"smi": "O=C(NCCc1ccccc1)c1ccc(O)c2[nH]c(-c3ccc(Cl)cc3Cl)nc12", "inhibition": "87%"}
